# Test target: T1, human IL-12 (human, UniProt P29459 23-219; P29460 23-328)
# T1 construct: recombinant human IL-12 heterodimer (p35/p40, disulfide-linked); also called hIL-12; rhIL-12
# T1 sequence (looked up) 1: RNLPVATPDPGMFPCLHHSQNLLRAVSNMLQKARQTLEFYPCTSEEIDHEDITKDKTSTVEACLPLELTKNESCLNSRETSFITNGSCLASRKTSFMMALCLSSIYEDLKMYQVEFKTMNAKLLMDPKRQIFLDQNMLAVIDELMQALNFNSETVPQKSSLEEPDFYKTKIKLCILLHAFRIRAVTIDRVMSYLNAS
# T1 sequence (looked up) 2: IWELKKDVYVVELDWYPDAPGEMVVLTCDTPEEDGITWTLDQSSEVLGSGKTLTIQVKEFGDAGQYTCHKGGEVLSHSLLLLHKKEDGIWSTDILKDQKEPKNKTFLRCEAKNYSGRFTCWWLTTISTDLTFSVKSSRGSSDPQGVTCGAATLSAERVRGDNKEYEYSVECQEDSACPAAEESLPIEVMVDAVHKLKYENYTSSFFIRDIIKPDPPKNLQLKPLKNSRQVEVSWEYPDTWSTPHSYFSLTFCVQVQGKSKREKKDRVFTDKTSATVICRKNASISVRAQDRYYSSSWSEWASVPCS
# Assay: SPR (BIAcore), IL-12 chip
Measurement label: log10 koff (log10 of the value in s⁻¹)
# log10 transformed; quantity=koff; unit=s⁻¹

I have this binder here, 149-6 (scFv, V domains shown, scFv) VH: QVQLVQSGGGVVQPGRSLRLSCAASGFTFSSYGMHWVRQAPGKGLEWVAFIRYDGSNKYYADSVKGRFTISRDNSKNTLYLQMKSLRAEDTAVYYCTTHGSHDNWGQGTMVTVSS VL: SYVLTQPPSVSGTPGQRVTISCSGGRSNIVSNTVKWYQQLPGTAPKLLIYGNDQRPSGVPDRFSGSKSGTSASLAITGVQAEDEADYYCQSYDRGFTGSRVFGTGTKVTVLG , and I need its recorded log10 koff.
-2.56

I have this binder here, B9 (scFv, V domains shown, scFv) VH: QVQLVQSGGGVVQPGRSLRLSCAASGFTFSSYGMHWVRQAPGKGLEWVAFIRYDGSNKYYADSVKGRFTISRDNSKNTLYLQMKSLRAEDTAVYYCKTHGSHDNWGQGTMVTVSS VL: SYVLTQPPSVSGTPGQRVTISCSGGRSNIGSNTVKWYQQLPGTAPKLLIYGNDQRPSGVPDRFSGSKSGTSASLAITGVQAEDEADYYCQSYDRGRAAHPQFGTGTKVTVL , and I need its recorded log10 koff.
-2.06

I have this binder here, 101-14 (scFv, V domains shown, scFv) VH: QVQLVQSGGGVVQPGRSLRLSCAASGFTFSSYGMHWVRQAPGKGLEWVAFIRYDGSNKYYADSVKGRFTISRDNSKNTLYLQMKSLRAEDTAVYYCTTHGSYDYWGQGTMVTVSS VL: SYVLTQPPSVSGTPGQRVTISCSGGRSNIGSNTVKWYQQLPGTAPKLLIYGNDQRPSGVPDRFSGSKSGTSASLAITGVQAEDEADYYCQSYDRGFTGSRVFGTGTKVTVL , and I need its recorded log10 koff.
-2.12

I have this binder here, A2 (scFv, V domains shown, scFv) VH: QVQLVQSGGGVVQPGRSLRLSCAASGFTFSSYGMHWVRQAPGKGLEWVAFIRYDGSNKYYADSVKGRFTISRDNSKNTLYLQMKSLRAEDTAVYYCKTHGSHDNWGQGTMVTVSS VL: SYVLTQPPSVSGTPGQRVTISCSGGRSNIGSNTVKWYQQLPGTAPKLLIYGNDQRPSGVPDRFSGSKSGTSASLAITGVQAEDEADYYCQSYDRGPYHPIRFGTGTKVTVL , and I need its recorded log10 koff.
-2.42

I have this binder here, 149-5 (scFv, V domains shown, scFv) VH: QVQLVQSGGGVVQPGRSLRLSCAASGFTFSSYGMHWVRQAPGKGLEWVAFIRYDGSNKYYADSVKGRFTISRDNSKNTLYLQMKSLRAEDTAVYYCTTHGSHDTWGQGTMVTVSS VL: SYVLTQPPSVSGTPGQRVTISCSGGRSNIGSNTVKWYQQLPGTAPKLLIYGNDQRPSGVPDRFSGSKSGTSASLAITGVQAEDEADYYCQSYDSSLWGTRVFGTGTKVTVLG , and I need its recorded log10 koff.
-2.99

I have this binder here, A11 (scFv, V domains shown, scFv) VH: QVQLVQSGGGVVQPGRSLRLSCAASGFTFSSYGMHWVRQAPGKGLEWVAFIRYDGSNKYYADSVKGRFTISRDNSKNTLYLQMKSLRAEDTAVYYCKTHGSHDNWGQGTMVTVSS VL: SYVLTQPPSVSGTPGQRVTISCSGGRSNIGSNTVKWYQQLPGTAPKLLIYGNDQRPSGVPDRFSGSKSGTSASLAITGVQAEDEADYYCQSYDRGTFPSPQFGTGTKVTVL , and I need its recorded log10 koff.
-2.68

I have this binder here, 73-B7 (scFv, V domains shown) VH: QVQLVQSGGGVVQPGRSLRLSCAASGFTFSSYGMHWVRQAPGKGLEWVAFIRYDGSNKYYADSVKGRFTISRDNSKNTLYLQMKSLRAEDTAVYYCTTHGSQDNWGQGTMVTVSS VL: SYVLTQPPSVSGTPGQRVTISCSGGRSNIGSNTVKWYQQLPGTAPKLLIYGNDQRPSGVPDRFSGSKSGTSASLAITGVQAEDEADYYCQSYDSSLRGSRVFGTGTKVTVLG , and I need its recorded log10 koff.
-2.60

I have this binder here, C6 (scFv, V domains shown, scFv) VH: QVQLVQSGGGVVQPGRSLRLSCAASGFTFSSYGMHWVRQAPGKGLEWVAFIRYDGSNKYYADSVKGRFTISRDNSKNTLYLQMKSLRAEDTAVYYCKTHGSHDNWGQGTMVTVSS VL: SYVLTQPPSVSGTPGQRVTISCSGGRSNIGSNTVKWYQQLPGTAPKLLIYGNDQRPSGVPDRFSGSKSGTSASLAITGVQAEDEADYYCQSYDRGQTPSITFGTGTKVTVL , and I need its recorded log10 koff.
-2.62

I have this binder here, 70-13 (scFv, V domains shown, scFv) VH: QVQLVQSGGGVVQPGRSLRLSCAASGFTFSSYGMHWVRQAPGKGLEWVAFIRYDGSNKYYADSVKGRFTISRDNSKNTLYLQMKSLRAEDTAVYYCTTSGSIDYWGQGTMVTVSS VL: SYVLTQPPSVSGTPGQRVTISCSGGRSNIGSNTVKWYQQLPGTAPKLLIYGNDQRPSGVPDRFSGSKSGTSASLAITGVQAEDEADYYCQSYDSSLRGSRVFGTGTKVTVL , and I need its recorded log10 koff.
-1.14

I have this binder here, C3 (scFv, V domains shown, scFv) VH: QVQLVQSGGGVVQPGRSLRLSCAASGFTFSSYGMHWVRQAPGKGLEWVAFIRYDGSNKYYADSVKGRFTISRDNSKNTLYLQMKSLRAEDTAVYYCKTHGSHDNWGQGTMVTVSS VL: SYVLTQPPSVSGTPGQRVTISCSGGRSNIGSNTVKWYQQLPGTAPKLLIYGNDQRPSGVPDRFSGSKSGTSASLAITGVQAEDEADYYCQSYDSGVDPGPYFGTGTKVTVL , and I need its recorded log10 koff.
-2.48
